# experimental_protocol: Cmax in rat at 2 mg/kg, po administered as single dose
# Format: ADME, organism-based
# Parameters: dose 2 mg/kg, route oral
# condition_summary: in vivo
experimental_endpoint: Cmax (ng/mL)

1) Cc1cc(Cl)c(OCCO)cc1NC(=O)C1=CNC(=O)C[C@H]1c1ccc(F)cc1 ... 330

----------
# experimental_protocol: Clearance in rat at 0.5 mg/kg, iv administered as single dose
# Type: ADME, organism-based
# condition_summary: in vivo
Reported clearance by item:
experimental_endpoint: clearance (mL/min/kg)

1. COC[C@H](O)Cn1c(=O)cnn(-c2ccc(C)c(NC(=O)C3=CN(C)C(=O)C[C@H]3c3ccc(F)cc3)c2)c1=O ... 23
2. Cc1cc(Cl)c(OCCO)cc1NC(=O)C1=CNC(=O)C[C@H]1c1ccc(F)cc1 ... 8.4
3. Cc1cc(F)c(-c2ccnn(C)c2=O)cc1NC(=O)C1=CN(C)C(=O)C[C@H]1c1ccc(F)cc1 ... 17

----------
# experimental_protocol: Intrinsic clearance in human liver microsomes assessed per mg of protein at 1 uM after 1 hr by LC/MS/MS analysis
# Assay type: ADME
# condition_summary: read-out: CLH
Reported microsomal CLint at 1 µM by item:
experimental_endpoint: microsomal CLint at 1 µM

1) COc1cc(I)c(CC(=O)N2C=CC(=O)CC2c2ccccc2)cc1OC (racemic) ... 168 µL/min/mg
2) COc1cc(C)c(NC(=O)N2C=CC(=O)C[C@H]2c2ccc(F)cc2)cc1OC ... 8.2 µL/min/mg
3) COc1cc(Br)c(CC(=O)N2C=CC(=O)CC2c2ccccc2)cc1OC (racemic) ... 153 µL/min/mg
4) COc1cc(Br)c(NC(=O)N2C=CC(=O)CC2c2ccccc2)cc1OC (racemic) ... 22 µL/min/mg

----------
# experimental_protocol: Drug degradation in human plasma at 10 uM after 4 hrs by LC/MS/MS analysis
# Assay type: ADME, cell-free
# condition_summary: read-out: Drug degradation
experimental_endpoint: metabolised at 4 h, 10 µM

1. Cc1cc(Cl)c(OCCO)cc1NC(=O)N1C=CC(=O)C[C@H]1c1ccc(F)cc1 ... 50%

----------
# System: Salmonella typhimurium
# experimental_protocol: Genotoxicity in Salmonella typhimurium by Ames test
# Assay type: toxicity, organism-based
# condition_summary: salmonella enterica subsp. enterica serovar typhimurium
experimental_endpoint: Activity

1. COC[C@H](O)Cn1c(=O)cnn(-c2ccc(C)c(NC(=O)C3=CN(C)C(=O)C[C@H]3c3ccc(F)cc3)c2)c1=O ... Non-toxic
2. Cc1ccc(-c2ccnn(CCO)c2=O)cc1NC(=O)C1=CN(C)C(=O)C[C@H]1c1ccc(F)cc1 ... Non-toxic
3. Cc1cc(Cl)c(OCCO)cc1N ... Toxic
4. Cc1ccc(-c2ccnn(C)c2=O)cc1NC(=O)C1=CN(C)C(=O)C[C@H]1c1ccc(F)cc1 ... Toxic

----------
# tgt: P2X purinoceptor 3 (Homo sapiens, UniProt P56373)
# Sequence (P56373 whole entry): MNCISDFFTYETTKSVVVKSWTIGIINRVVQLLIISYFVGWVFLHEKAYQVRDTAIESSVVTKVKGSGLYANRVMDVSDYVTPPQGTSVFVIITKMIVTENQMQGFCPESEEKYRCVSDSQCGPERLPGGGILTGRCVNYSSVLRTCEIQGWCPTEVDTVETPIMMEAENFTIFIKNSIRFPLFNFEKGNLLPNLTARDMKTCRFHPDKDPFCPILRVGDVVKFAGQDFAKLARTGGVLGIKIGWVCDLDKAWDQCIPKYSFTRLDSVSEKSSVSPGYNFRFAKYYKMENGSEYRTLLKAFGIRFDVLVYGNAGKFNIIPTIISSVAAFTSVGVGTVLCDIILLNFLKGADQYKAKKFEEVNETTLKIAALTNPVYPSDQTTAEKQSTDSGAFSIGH
experimental_endpoint: IC50

1. Cc1cc(Cl)c(OCCO)cc1NC(=O)C1=CNC(=O)C[C@H]1c1ccc(F)cc1 ... > 10 µM

----------
# tgt: UniProt Q64663
# Sequence (Q64663 whole entry): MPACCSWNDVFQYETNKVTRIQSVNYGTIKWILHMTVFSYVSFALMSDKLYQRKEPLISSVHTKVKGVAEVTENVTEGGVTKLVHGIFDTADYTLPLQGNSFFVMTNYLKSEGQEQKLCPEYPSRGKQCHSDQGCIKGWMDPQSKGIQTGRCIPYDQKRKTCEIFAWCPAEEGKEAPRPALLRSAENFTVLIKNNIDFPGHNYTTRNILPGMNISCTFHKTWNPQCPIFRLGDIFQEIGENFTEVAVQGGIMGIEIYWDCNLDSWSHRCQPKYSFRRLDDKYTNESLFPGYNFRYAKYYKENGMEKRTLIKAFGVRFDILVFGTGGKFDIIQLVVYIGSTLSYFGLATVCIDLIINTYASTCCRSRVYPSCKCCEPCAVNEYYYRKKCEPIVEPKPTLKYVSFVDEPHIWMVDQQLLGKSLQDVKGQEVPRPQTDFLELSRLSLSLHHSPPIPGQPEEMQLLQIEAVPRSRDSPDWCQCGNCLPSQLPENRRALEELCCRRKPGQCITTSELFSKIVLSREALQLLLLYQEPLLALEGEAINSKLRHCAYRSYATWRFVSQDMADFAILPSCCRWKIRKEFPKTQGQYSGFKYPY
# experimental_protocol: Antagonist activity at rat P2X7R expressed in BzATP-stimulated HEK293 cells incubated for 20 mins followed by BzATP stimulation measured every 1 sec for 60 secs followed by 3 sec intervals for 4 mins by FLIPR Ca2+ assay in presence of ionomycin
experimental_endpoint: IC50

1) Cc1cc(Cl)c(OCCO)cc1NC(=O)C1=CNC(=O)C[C@H]1c1ccc(F)cc1 ... > 10 µM

----------
# experimental_protocol: Half life in rat at 0.5 mg/kg, iv administered as single dose
# Type: ADME, organism-based
# condition_summary: in vivo
Reported half-life by item:
experimental_endpoint: half-life (h)

1) Cc1cc(F)c(-c2ccnn(C)c2=O)cc1NC(=O)C1=CN(C)C(=O)C[C@H]1c1ccc(F)cc1 ... 1
2) Cc1cc(Cl)c(OCCO)cc1NC(=O)C1=CNC(=O)C[C@H]1c1ccc(F)cc1 ... 4
3) COC[C@H](O)Cn1c(=O)cnn(-c2ccc(C)c(NC(=O)C3=CN(C)C(=O)C[C@H]3c3ccc(F)cc3)c2)c1=O ... 4

----------
# experimental_protocol: Metabolic stability in human plasma
# Format: ADME, cell-free
# condition_summary: read-out: Stability (converted)
experimental_endpoint: half-life (h)

1) Cc1cc(Cl)c(OCCO)cc1NC(=O)C1=CNC(=O)C[C@H]1c1ccc(F)cc1 ... 4

----------
# experimental_protocol: Solubility of compound by lyophilization solubility assay
# Assay type: physicochemical
Reported solubility by item:
experimental_endpoint: solubility (µg/mL)

1) COC[C@H](O)Cn1c(=O)cnn(-c2ccc(C)c(NC(=O)C3=CN(C)C(=O)C[C@H]3c3ccc(F)cc3)c2)c1=O ... 1020
2) Cc1cc(F)c(-c2ccnn(C)c2=O)cc1NC(=O)C1=CN(C)C(=O)C[C@H]1c1ccc(F)cc1 ... 322

----------
# experimental_protocol: Intrinsic clearance in rat liver microsomes assessed per mg of protein at 1 uM after 1 hr by LC/MS/MS analysis
# Type: ADME
# condition_summary: read-out: CLH
experimental_endpoint: microsomal CLint at 1 µM (µL/min/mg)

1. COc1cc(Br)c(NC(=O)N2C=CC(=O)CC2c2ccccc2)cc1OC (racemic) ... 78
2. COc1cc(C)c(NC(=O)N2C=CC(=O)C[C@H]2c2ccc(F)cc2)cc1OC ... 25
3. COc1cc(I)c(CC(=O)N2C=CC(=O)CC2c2ccccc2)cc1OC (racemic) ... 548
4. COc1cc(Br)c(CC(=O)N2C=CC(=O)CC2c2ccccc2)cc1OC (racemic) ... 490

----------
# tgt: P2X purinoceptor 7 (Homo sapiens, UniProt Q99572)
# Sequence (Q99572 whole entry): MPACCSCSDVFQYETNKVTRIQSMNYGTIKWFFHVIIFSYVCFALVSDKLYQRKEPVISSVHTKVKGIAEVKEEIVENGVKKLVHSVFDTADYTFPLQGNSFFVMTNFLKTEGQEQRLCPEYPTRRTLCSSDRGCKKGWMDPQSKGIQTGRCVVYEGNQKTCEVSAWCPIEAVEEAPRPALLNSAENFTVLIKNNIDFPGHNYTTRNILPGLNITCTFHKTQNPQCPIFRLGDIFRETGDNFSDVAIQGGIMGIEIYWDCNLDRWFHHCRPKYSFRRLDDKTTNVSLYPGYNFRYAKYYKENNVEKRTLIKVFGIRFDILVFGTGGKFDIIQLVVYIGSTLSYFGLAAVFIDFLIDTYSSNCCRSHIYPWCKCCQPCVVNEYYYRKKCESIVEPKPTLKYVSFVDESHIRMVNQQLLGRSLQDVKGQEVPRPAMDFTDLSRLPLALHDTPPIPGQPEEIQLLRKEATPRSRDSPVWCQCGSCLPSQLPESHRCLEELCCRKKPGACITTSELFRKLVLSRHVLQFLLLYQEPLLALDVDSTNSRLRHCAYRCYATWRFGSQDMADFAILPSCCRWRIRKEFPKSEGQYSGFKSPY
# experimental_protocol: Antagonist activity at P2X7R in human whole blood assessed as inhibition of LPS-induced IL-1beta production incubated for 30 mins followed by ATP addition for 30 mins by ELISA assay
# Assay type: tissue-based
Reported log10(IC50) by item:
experimental_endpoint: log10(IC50) (log10 of the value in nM)

1. Cc1ccc(-n2ncccc2=O)cc1NC(=O)C1=CN(C)C(=O)C[C@H]1c1ccc(F)cc1 ... 1.52
2. Cc1cc(Cl)c(OCCO)cc1NC(=O)C1=CNC(=O)C[C@H]1c1ccc(F)cc1 ... 1.78
3. COC[C@H](O)Cn1c(=O)cnn(-c2ccc(C)c(NC(=O)C3=CN(C)C(=O)C[C@H]3c3ccc(F)cc3)c2)c1=O ... 1.23
4. Cc1cc2cnn(CCO)c2cc1NC(=O)C1=CNC(=O)C[C@H]1c1ccc(F)cc1 ... 1.67
5. Cc1ccc(-c2ccnn(C)c2=O)cc1NC(=O)C1=CN(C)C(=O)C[C@H]1c1ccc(F)cc1 ... 0.78
6. Cc1cc(F)c(-c2ccnn(C)c2=O)cc1NC(=O)C1=CN(C)C(=O)C[C@H]1c1ccc(F)cc1 ... 1.11
7. Cc1ccc(-c2ccn[nH]c2=O)cc1NC(=O)C1=CN(C)C(=O)C[C@H]1c1ccc(F)cc1 ... 1.30
8. COc1cc(Br)c(NC(=O)C2=CNC(=O)C[C@H]2c2cccc(F)c2)cc1OC ... 2.03
9. Cc1ccc(-c2ccnn(CCO)c2=O)cc1NC(=O)C1=CN(C)C(=O)C[C@H]1c1ccc(F)cc1 ... 1.23
10. Cc1ccc(-n2ccccc2=O)cc1NC(=O)C1=CN(C)C(=O)N[C@H]1c1ccc(F)cc1 ... 1.32
11. CN1C=C(C(=O)Nc2cc(-c3ccn[nH]c3=O)ccc2F)[C@H](c2ccc(F)cc2)CC1=O ... 1.43

----------
# tgt: P2X2/P2X3 heterotrimeric receptor (Homo sapiens, UniProt P56373+Q9UBL9)
# experimental_protocol: Inhibition of P2X2/3R (unknown origin)
pIC50: −log10 of the molar value.
experimental_endpoint: pIC50

1) Cc1cc(Cl)c(OCCO)cc1NC(=O)C1=CNC(=O)C[C@H]1c1ccc(F)cc1 ... < 5.00

----------
# tgt: P2X purinoceptor 2 (Homo sapiens)
# Sequence (Q9UBL9 whole entry): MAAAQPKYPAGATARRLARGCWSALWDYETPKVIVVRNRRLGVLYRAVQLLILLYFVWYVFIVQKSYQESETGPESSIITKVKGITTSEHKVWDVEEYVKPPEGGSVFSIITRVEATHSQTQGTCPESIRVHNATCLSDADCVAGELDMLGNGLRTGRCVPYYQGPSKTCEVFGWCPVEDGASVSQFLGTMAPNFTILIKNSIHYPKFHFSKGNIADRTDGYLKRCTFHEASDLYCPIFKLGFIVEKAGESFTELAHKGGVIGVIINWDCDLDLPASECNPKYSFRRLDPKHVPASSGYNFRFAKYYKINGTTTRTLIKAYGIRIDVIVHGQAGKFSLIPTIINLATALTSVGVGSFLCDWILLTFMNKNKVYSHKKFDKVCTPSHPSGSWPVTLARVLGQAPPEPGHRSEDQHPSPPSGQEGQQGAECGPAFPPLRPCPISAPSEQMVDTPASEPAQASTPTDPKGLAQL
# experimental_protocol: Inhibition of P2X2R (unknown origin)
pIC50: −log10 of the molar value.
experimental_endpoint: pIC50

1) Cc1cc(Cl)c(OCCO)cc1NC(=O)C1=CNC(=O)C[C@H]1c1ccc(F)cc1 ... < 5.00
